Quick record of IC50 values for Cytochrome P450 3A4 (Homo sapiens, UniProt P08684).
experimental-readout: IC50 (nM)

[[record]]
smiles_input = "CC(C)CN(C[C@@H](O)[C@H](Cc1ccccc1)NC(=O)OCc1cncs1)C(=O)c1ccc2nc(NCCCN(C)C)oc2c1"
reading_unit = "nM"
measured_value = 200

[[record]]
smiles_input = "CC(C)CN(C[C@@H](O)[C@H](Cc1ccccc1)NC(=O)OCc1cncs1)C(=O)c1ccc2nc(-c3ccncc3)oc2c1"
reading_unit = "nM"
measured_value = 24

[[record]]
smiles_input = "CCN(C)c1nc2ccc(C(=O)N(CCN3CCOCC3)C[C@@H](O)[C@H](Cc3ccccc3)NC(=O)OCc3cncs3)cc2o1"
reading_unit = "nM"
measured_value = 140


----------
experiment: Efflux ratio of apparent permeability of the compound from basal to apical to apical to basal side of human Caco2 cells at 10 uM at pH 7.4 after 60 mins; assay type: ADME, cell-based; details: Caco-2, pH 7.4
The following molecules are shown together with reported efflux ratio at 1 h, 10 µM values.
experimental-readout: efflux ratio at 1 h, 10 µM

[[record]]
smiles_input = "CC(C)CN(C[C@@H](O)[C@H](Cc1ccccc1)NC(=O)OCc1cncs1)C(=O)c1ccc2ncsc2c1"
measured_value = 3.6

[[record]]
smiles_input = "CC(C)CN(C[C@@H](O)[C@H](Cc1ccccc1)NC(=O)OCc1cncs1)C(=O)c1ccc2nc(N)sc2c1"
measured_value = 22


----------
Recorded IC50 by entry
target: Cytochrome P450 3A4 (Homo sapiens, UniProt P08684); assay: Inhibition of CYP3A4 in human liver microsomes using midazolam as substrate after 10 mins by LC/MS/MS analysis
Sequence (P08684 whole entry): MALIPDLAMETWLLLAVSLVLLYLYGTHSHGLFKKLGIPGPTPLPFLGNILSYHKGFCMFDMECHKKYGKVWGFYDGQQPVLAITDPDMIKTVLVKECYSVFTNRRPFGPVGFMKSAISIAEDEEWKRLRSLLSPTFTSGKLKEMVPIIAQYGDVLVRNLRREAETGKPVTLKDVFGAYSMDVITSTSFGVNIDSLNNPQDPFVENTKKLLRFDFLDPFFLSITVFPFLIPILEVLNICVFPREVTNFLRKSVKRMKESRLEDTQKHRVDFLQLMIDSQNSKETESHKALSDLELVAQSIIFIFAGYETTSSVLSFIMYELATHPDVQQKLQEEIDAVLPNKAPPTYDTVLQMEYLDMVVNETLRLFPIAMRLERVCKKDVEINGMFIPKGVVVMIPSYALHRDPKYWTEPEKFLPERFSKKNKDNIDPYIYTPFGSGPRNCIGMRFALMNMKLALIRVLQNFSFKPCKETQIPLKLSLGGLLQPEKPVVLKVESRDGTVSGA
experimental-readout: IC50 (nM)

[[record]]
smiles_input = "O=C(N[C@@H](Cc1ccccc1)[C@H](O)CN(CCN1CCCC1)C(=O)c1ccc2nc(N3CCCC3)oc2c1)OCc1cncs1"
experimental_readout = "IC50"
measured_value = 130

[[record]]
smiles_input = "CCN(C[C@@H](O)[C@H](Cc1ccccc1)NC(=O)OCc1cncs1)C(=O)c1ccc2nc(N(C)CC)oc2c1"
experimental_readout = "IC50"
measured_value = 79

[[record]]
smiles_input = "CC(C)CN(C[C@@H](O)[C@H](Cc1ccccc1)NC(=O)OCc1cncs1)C(=O)c1ccc2nc(NC3CCN(C)CC3)oc2c1"
experimental_readout = "IC50"
measured_value = 2700

[[record]]
smiles_input = "CCN(C)c1nc2ccc(C(=O)N(CC(C)C)C[C@@H](O)[C@H](Cc3ccccc3)NC(=O)OCc3ccncc3)cc2o1"
experimental_readout = "IC50"
measured_value = 200


----------
test: Absolute oral bioavailability in rat at 10 mg/kg administered as single dose; assay type: ADME, organism-based; conditions: in vivo
Items are presented alongside their recorded bioavailability.
experimental-readout: bioavailability

[[record]]
smiles_input = "CC(C)CN(C[C@@H](O)[C@H](Cc1ccccc1)NC(=O)OCc1cncs1)C(=O)c1ccc2ncsc2c1"
measured_value = "107%"

[[record]]
smiles_input = "CC(C)CN(C[C@@H](O)[C@H](Cc1ccccc1)NC(=O)OCc1cncs1)C(=O)c1ccc2nc(N)sc2c1"
measured_value = "0.82%"

[[record]]
smiles_input = "CCN(C)c1nc2ccc(C(=O)N(CC(C)C)C[C@@H](O)[C@H](Cc3ccccc3)NC(=O)OCc3cncs3)cc2o1"
measured_value = "44%"

